TGI listing for selected compounds.
- Tested on: SF-539 CNS
- assay.summary: NCI tumour cell line growth inhibition, 48 h
quantity: TGI (µM)

>>> obs_value("O=C1/C(=C\\c2ccc(Cl)cc2Cl)Sc2scc(-c3ccc(O)c(O)c3)[n+]21")
45.2
>>> obs_value("COc1c(CC(C)=O)ccc2c1C(=O)c1ccc(C=O)c(OC(C)=O)c1C2=O")
20.8
>>> obs_value("O=C1SC(SCc2ccccc2)=NC12CC2c1ccccc1 (stereo not drawn)")
37.7
>>> obs_value("O=S1C(=c2ccc(=C3Sc4ccccc4S3)cc2)Sc2ccccc21 (stereo not drawn)")
30.5

----------
- System: MDA-MB-435
- assay.summary: NCI tumour cell line growth inhibition, 48 h
*1 amine or outer side, *2 acyl side, *3 side chain or, on linkers, in order; H or OH if unused. Where a SMILES comes first, the peptide text is derived from it. Bridges are numbered along the chain shown (N, C = ends). Roman numbers before positions name the chains, in order. [ ]: non-standard residue; d: D form. Actinocin(9to1) = Cc1c2oc3c(C)ccc(C(=O)[*:1])c3nc-2c(C(=O)[*:2])c(N)c1=O; NMeV = CN[CH](C(=O)O)C(C)C; Sar = CNCC(=O)O
quantity: TGI

>>> obs_value("N=c1oc2ccccc2cc1C(=O)NC12CC3CC(CC(C3)C1)C2")
"> 83.6 µM"
>>> obs_value("CCOC(=O)c1cc(-c2ccc(OC)cc2)c([N+](=O)[O-])n1C")
"> 10 µM"
>>> obs_value("CO[C@](C(=O)OC[C@H]1[C@@H](COC(C)=O)[C@@H]2O[C@H]1c1cc3c(cc12)OCO3)(c1ccccc1)C(F)(F)F")
"> 100 µM"
>>> obs_value("Cc1ccc2nc(-c3ccccc3)cc(=O)n2c1")
"> 100 µM"
>>> obs_value("CC1(C)[C@@H](Cn2cc(I)c(=O)[nH]c2=O)CC[C@@]1(C)CO")
"> 100 µM"
>>> obs_value("CC(=O)OC1(C)N=NC2(CCCCC2)O1 (stereo not given)")
"> 100 µM"
>>> obs_value("O=C1c2ccccc2-n2nnnc2C2CSCN12 (stereo not given)")
"> 100 µM"
>>> obs_value("Cc1ccc(-[n+]2cc([O-])on2)cc1")
"> 100 µM"
>>> obs_value("COC1=CC(=O)C(C2(OC(C)C)OC(=O)C(Cl)=C2Cl)=CC1=O (stereo not given)")
"> 100 µM"
>>> obs_value("COC(=O)[C@]1(C)CCC[C@@]2(C)C1CC[C@@]13C=C(C(C)C)[C@@H](CC1=O)CC23 (stereo not given in full)")
"> 100 µM"
>>> obs_value("N#C/C(N)=C(\\C#N)NC=NCCO")
"> 100 µM"
>>> obs_value("C=C1C(=O)O[C@H]2[C@H]1CC/C(CNC(=O)c1cc3ccccc3[nH]1)=C\\CC[C@@]1(C)O[C@@H]21")
"4.63 µM"
>>> obs_value("CCOc1ccc(NC2=CC(=O)C(=O)c3ccccc32)cc1")
"3.19 µM"
>>> obs_value("CC(=O)CC1CCC(=O)/C=C/C(=O)OC(CC(C)=O)CCC(=O)/C=C/C(=O)O1 (stereo not given)")
"32 µM"
>>> obs_value("COCCn1cc(-c2nc(-c3cc4cccnc4[nH]3)cs2)c2cc(OC)ccc21")
"> 100 µM"
>>> obs_value("Cc1c2oc3c(C)ccc(C(=O)NC4C(=O)NC(C(C)C)C(=O)N5CCCC5C(=O)N(C)CC(=O)N(C)C(C(C)C)C(=O)OC4C)c3nc-2c(C(=O)NC2C(=O)NC(C(C)C)C(=O)N3CCCC3C(=O)N(C)CC(=O)N(C)C(C(C)C)C(=O)OC2C)c(N)c1=O (stereo not given) (I: TVP[Sar][NMeV] / II: TVP[Sar][NMeV]; ester I:1-I:C, II:1-II:C; linker I:N-II:N via Actinocin(9to1); configuration not given here)")
"0.0125 µM"
>>> obs_value("CC(C)C(NC(=O)Oc1ccccc1)C(=O)NC1c2c(Br)sc(Br)c2C(=O)C1O (stereo not given)")
"13.1 µM"
>>> obs_value("C/C(=N\\NC(N)=S)c1ccc2c(c1)Sc1ccccc1O2")
"0.95 µM"
>>> obs_value("Cc1ccc(S[C@@H](C)[C@@](O)(CF)CN(Cc2ccccc2)C(=O)C(F)(F)F)cc1")
"40.4 µM"
>>> obs_value("O=C1NC(=NCc2ccccc2)S/C1=C\\c1ccc2ncccc2c1")
"> 25 µM"

Source listed as PubChem BioAssay (NCI).
